TARGET_OR_TEST_SYSTEM: T1, human CD86-murine Ig fusion protein (human)
T1 construct: Bought (Ancell #509-820); also called hCD86-mIg
T1 chain: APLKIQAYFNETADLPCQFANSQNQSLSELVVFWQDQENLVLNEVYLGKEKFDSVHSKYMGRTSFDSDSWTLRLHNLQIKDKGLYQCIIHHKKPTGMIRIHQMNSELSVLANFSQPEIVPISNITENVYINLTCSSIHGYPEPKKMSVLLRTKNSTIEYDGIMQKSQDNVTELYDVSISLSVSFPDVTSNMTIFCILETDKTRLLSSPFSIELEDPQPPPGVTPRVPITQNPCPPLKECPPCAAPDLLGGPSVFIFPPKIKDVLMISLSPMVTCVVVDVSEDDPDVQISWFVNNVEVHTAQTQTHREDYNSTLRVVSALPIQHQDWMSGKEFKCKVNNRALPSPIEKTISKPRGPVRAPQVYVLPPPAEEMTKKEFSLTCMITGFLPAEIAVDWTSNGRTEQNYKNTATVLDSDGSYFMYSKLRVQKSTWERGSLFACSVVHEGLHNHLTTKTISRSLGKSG
ASSAY_OVERVIEW: SPR Biacore, hCD86-mIg captured
QUANTITY_KIND: Kd

Can you share its Kd? I mean this binder: D3-24-IgG2 (Fc fusion) MHVAQPAVVLASSRGIASFVCEYESPGKANEIRVTVLRQAGSQVTEVCAMTYMKGNELTFLDDPSCTGTFSGNQVNLTIQGLRAMDTGLYICKVELMYPPPYYLGFGNGTQIYVIDPEPCPDSDERKCCVECPPCPAPPVAGPSVFLFPPKPKDTLMISRTPEVTCVVVDVSHEDPEVQFNWYVDGVEVHNAKTKPREEQFNSTFRVVSVLTVVHQDWLNGKEYKCKVSNKGLPAPIEKTISKTKGQPREPQVYTLPPSREEMTKNQVSLTCLVKGFYPSDIAVEWESNGQPENNYKTTPPMLDSDGSFFLYSKLTVDKSRWQQGNVFSCSVMHEALHNHYTQKSLSLSPG 0.131 to 0.262 nM

Same for D3-71-IgG2 (Fc fusion) MHVAQPAVVLASSRGIASFVCEYASPGKANEIRVTVLRQADSQVTEVCAMTYMKGDELTFLDDPSCTGTFSGNQVNLTIQGLRAMDTGLYICKVELMYPPPYYEGIGNGTQIYVIDPEPCPDSDERKCCVECPPCPAPPVAGPSVFLFPPKPKDTLMISRTPEVTCVVVDVSHEDPEVQFNWYVDGVEVHNAKTKPREEQFNSTFRVVSVLTVVHQDWLNGKEYKCKVSNKGLPAPIEKTISKTKGQPREPQVYTLPPSREEMTKNQVSLTCLVKGFYPSDIAVEWESNGQPENNYKTTPPMLDSDGSFFLYSKLTVDKSRWQQGNVFSCSVMHEALHNHYTQKSLSLSPG < 0.131 nM

Same for D3-76-IgG2 (Fc fusion) MHVAQPAVVLASSRGIASFVCEYASPGKANEVRVTVLRQADSQVTEVCAMTYMKEDELTFLDDPICTGTFSGNQVNLTIQGLRAMDTGLYICKVELMYPPPYYLGIGNGTQIYVIDPEPCPDSDERKCCVECPPCPAPPVAGPSVFLFPPKPKDTLMISRTPEVTCVVVDVSHEDPEVQFNWYVDGVEVHNAKTKPREEQFNSTFRVVSVLTVVHQDWLNGKEYKCKVSNKGLPAPIEKTISKTKGQPREPQVYTLPPSREEMTKNQVSLTCLVKGFYPSDIAVEWESNGQPENNYKTTPPMLDSDGSFFLYSKLTVDKSRWQQGNVFSCSVMHEALHNHYTQKSLSLSPG < 0.131 nM

Same for D3-19-IgG2 (Fc fusion) MHVAQPAVVLASSRGIASFVCEYESPGKANEIRVTVLRQADSQVTEVCAMTYMKGNELTFLDDPSCTGTFSGNQVNLTIQGLRAADTGLYICKVELMYPPPYYLGIGNGTQIYVIDPEPCPDSDERKCCVECPPCPAPPVAGPSVFLFPPKPKDTLMISRTPEVTCVVVDVSHEDPEVQFNWYVDGVEVHNAKTKPREEQFNSTFRVVSVLTVVHQDWLNGKEYKCKVSNKGLPAPIEKTISKTKGQPREPQVYTLPPSREEMTKNQVSLTCLVKGFYPSDIAVEWESNGQPENNYKTTPPMLDSDGSFFLYSKLTVDKSRWQQGNVFSCSVMHEALHNHYTQKSLSLSPG 0.131 to 0.262 nM

Same for D3-20-IgG2 (Fc fusion) MHVAQPAVVLASSRGIASFVCEYESPGKANEIRVTVLRQADSQVTEVCAMTYMKGNELTFLDDPSCTGTFSGNQVNLTIQGLRAMDTGLYICKVELMYPPPYYLGIGNGTQIYVIDPEPCPDSDERKCCVECPPCPAPPVAGPSVFLFPPKPKDTLMISRTPEVTCVVVDVSHEDPEVQFNWYVDGVEVHNAKTKPREEQFNSTFRVVSVLTVVHQDWLNGKEYKCKVSNKGLPAPIEKTISKTKGQPREPQVYTLPPSREEMTKNQVSLTCLVKGFYPSDIAVEWESNGQPENNYKTTPPMLDSDGSFFLYSKLTVDKSRWQQGNVFSCSVMHEALHNHYTQKSLSLSPG 0.131 to 0.262 nM

Same for D5-IgG2 (Fc fusion) MHVAQPAVVLASSRGIASFVCEYASPGKATEVRVTVLRQADSQVTEVCAATYMMGDELTFLDDPICTGTFSGNQVNLTIQGLRAMDTGLYICKVELMYPPPYYLGIGNGTQIYVIDPEPCPDSDERKCCVECPPCPAPPVAGPSVFLFPPKPKDTLMISRTPEVTCVVVDVSHEDPEVQFNWYVDGVEVHNAKTKPREEQFNSTFRVVSVLTVVHQDWLNGKEYKCKVSNKGLPAPIEKTISKTKGQPREPQVYTLPPSREEMTKNQVSLTCLVKGFYPSDIAVEWESNGQPENNYKTTPPMLDSDGSFFLYSKLTVDKSRWQQGNVFSCSVMHEALHNHYTQKSLSLSPG 0.523 to 2.65 nM

Same for D3-28-IgG2 (Fc fusion) MHVAQPAVVLASSRGIASFVCEYESPGKANEIRVTVLRQADSQVTEVCAMTYMKGNELTFLDDPICTGTFSGNQVNLTIQGLRAMDTGLYICKVELMYPPPYYLGIGNGTQIYVIDPEPCPDSDERKCCVECPPCPAPPVAGPSVFLFPPKPKDTLMISRTPEVTCVVVDVSHEDPEVQFNWYVDGVEVHNAKTKPREEQFNSTFRVVSVLTVVHQDWLNGKEYKCKVSNKGLPAPIEKTISKTKGQPREPQVYTLPPSREEMTKNQVSLTCLVKGFYPSDIAVEWESNGQPENNYKTTPPMLDSDGSFFLYSKLTVDKSRWQQGNVFSCSVMHEALHNHYTQKSLSLSPG 0.262 to 0.523 nM
